Quick reference for T/C among some compounds
Test system: BDF1 mice, P388 leukemia ip, median survival T/C
protocol.summary: NCI In Vivo Anticancer Drug Screen. Data for tumor model P388 Leukemia (intraperitoneal) in B6D2F1 (BDF1) mice
stated.conditions: endpoint: median survival time; dose: 200.0 mg/kg/injection; schedule: Q01DX009 (ip); vehicle: saline sonified; higher = longer survival
Inconclusive results and toxic doses are left out.

1) C=C1C=C(C)CC(C)(C)C1 (tested in a mixture with another compound)
100 % of control
2) CCN(CC)C(=S)S
100 % of control
3) O=C(c1ccccc1)C1(Br)CCC1
100 % of control

Next compound, T/C to be filled in.
Specify measured T/C for `C[C@]12CCC(=O)C(O)=C1CC[C@@H]1[C@@H]2CC[C@@]2(C)[C@H]1CC[C@]2(C)O` .
90 % of control
